Every entry's value here was drawn from ChEMBL document CHEMBL1909294.

Consider compounds characterized by their HepSE_hepatitis with Hepatotoxicity.
OBSERVED_PROPERTY: HepSE_hepatitis

> print(dat)
                                    compound  observed.property  value.observed
 1  O=C(c1ccccc1)c1ccc2n1CCC2C(=O)O (stereo unspecified)    HepSE_hepatitis               1
 2  OC[C@H]1O[C@@H](n2cnc3c2NC=NC[C@H]3O)C[C@@H]1O    HepSE_hepatitis               0
 3  CN(Cc1cnc2nc(N)nc(N)c2n1)c1ccc(C(=O)N[C@@H](CCC(=O)O)C(=O)O)cc1 [METHOTREXATE]    HepSE_hepatitis               1
 4  CN1CCC[C@@H]1Cc1c[nH]c2ccc(CCS(=O)(=O)c3ccccc3)cc12    HepSE_hepatitis               0
 5                 CC(O)(P(=O)(O)O)P(=O)(O)O    HepSE_hepatitis               0
 6   CCOC(=O)c1ncn2c1CN(C)C(=O)c1cc(F)ccc1-2    HepSE_hepatitis               0
 7  CN(C)c1ccc(O)c2c1C[C@H]1C[C@H]3[C@H](N(C)C)C(O)=C(C(N)=O)C(=O)[C@@]3(O)C(O)=C1C2=O    HepSE_hepatitis               1
 8  Nc1nc(/C(=C/CC(=O)O)C(=O)N[C@@H]2C(=O)N3C(C(=O)O)=CCS[C@H]23)cs1    HepSE_hepatitis               0
 9             Nc1nnc(-c2cccc(Cl)c2Cl)c(N)n1    HepSE_hepatitis               1
10  COc1ccc2c(c1)c(CC(=O)O)c(C)n2C(=O)c1ccc(Cl)cc1    HepSE_hepatitis               0
11  CN1C(CCl)Nc2cc(Cl)c(S(N)(=O)=O)cc2S1(=O)=O (stereo unspecified) [METHYCLOTHIAZIDE]    HepSE_hepatitis               0

====

Test system: Hepatotoxicity
Entries and their measured HepSE_liver fatty follow.

COMPOUND	HepSE_liver fatty
COc1cc(CC2c3c(cc(OC)c(OC)c3OC)CC[N+]2(C)CCCOC(=O)CCC(=O)OCCC[N+]2(C)CCc3cc(OC)c(OC)c(OC)c3C2Cc2cc(OC)c(OC)c(OC)c2)cc(OC)c1OC (stereo unspecified) [DOXACURIUM]	0
CNC(=O)c1c(I)c(NC(C)=O)c(I)c(C(=O)O)c1I [IOTHALAMIC ACID]	0
CC[C@@H](CO)NCCN[C@@H](CC)CO [ETHAMBUTOL]	0
CCOc1nc2cccc(C(=O)O)c2n1Cc1ccc(-c2ccccc2-c2nnn[nH]2)cc1	0
C[C@]12COC(=O)C[C@@H]1CC[C@@H]1[C@@H]2CC[C@@]2(C)[C@H]1CC[C@]2(C)O [OXANDROLONE]	0
Cc1onc(-c2ccccc2)c1C(=O)N[C@@H]1C(=O)N2[C@@H]1SC(C)(C)[C@@H]2C(=O)O [OXACILLIN]	0
COc1cc2nc(N3CCN(C(=O)C4CCCO4)CC3)nc(N)c2cc1OC (stereo unspecified) [TERAZOSIN]	0
C=CCN1CC[C@]23c4c5ccc(O)c4O[C@H]2C(=O)CC[C@@]3(O)[C@H]1C5 [NALOXONE]	0
CC(C)CN(C[C@@H](O)[C@H](Cc1ccccc1)NC(=O)O[C@H]1CO[C@H]2OCC[C@H]21)S(=O)(=O)c1ccc(N)cc1	0
CC(C)Cn1cnc2c(N)nc3ccccc3c21 [IMIQUIMOD]	0
O=C(O)CCCCCCCC(=O)O [AZELAIC ACID]	0
CC(C)(C)NC[C@H](O)COc1nsnc1N1CCOCC1 [TIMOLOL]	0
CCCCC[C@H](O)/C=C/[C@H]1[C@H](O)CC(=O)[C@@H]1C/C=C\CCCC(=O)O [DINOPROSTONE]	0
NC(=O)c1cnccn1 [PYRAZINAMIDE]	0
O=c1n(CCCN2CCN(c3cccc(Cl)c3)CC2)nc2ccccn12 [TRAZODONE]	0
CCCC(C)(COC(N)=O)COC(N)=O [MEPROBAMATE]	0
